system-under-test: MAPK6 (human) (UniProt Q16659)
Sequence (Q16659 whole entry, looked up): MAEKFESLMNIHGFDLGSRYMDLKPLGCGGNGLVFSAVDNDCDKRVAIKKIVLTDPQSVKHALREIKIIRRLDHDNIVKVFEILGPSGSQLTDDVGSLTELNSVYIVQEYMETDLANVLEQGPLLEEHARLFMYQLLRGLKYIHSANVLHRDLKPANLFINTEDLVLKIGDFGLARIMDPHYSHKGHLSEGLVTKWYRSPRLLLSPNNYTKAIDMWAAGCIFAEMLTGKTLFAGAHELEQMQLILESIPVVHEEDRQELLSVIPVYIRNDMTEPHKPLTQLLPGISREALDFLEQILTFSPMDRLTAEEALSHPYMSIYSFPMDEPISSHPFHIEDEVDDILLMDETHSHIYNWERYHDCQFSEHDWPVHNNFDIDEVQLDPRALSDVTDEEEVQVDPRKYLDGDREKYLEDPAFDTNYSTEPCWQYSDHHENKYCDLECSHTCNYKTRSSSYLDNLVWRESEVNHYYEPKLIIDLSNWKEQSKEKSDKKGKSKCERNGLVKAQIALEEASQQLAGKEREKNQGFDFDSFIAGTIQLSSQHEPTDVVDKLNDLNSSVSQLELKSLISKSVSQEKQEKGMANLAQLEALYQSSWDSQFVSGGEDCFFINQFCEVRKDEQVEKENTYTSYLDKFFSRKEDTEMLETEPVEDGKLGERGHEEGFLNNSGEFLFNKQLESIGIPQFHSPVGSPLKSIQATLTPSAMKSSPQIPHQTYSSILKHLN
measurement-description: KINOMEscan competition binding
experimental-conditions: compound 10.0 µM
parameter: kinase still bound, per cent of control (%)

| structure-string | parameter | readout-number |
| --- | --- | --- |
| COc1cc(C(=O)N2CCC(N3CCN(C)CC3)CC2)ccc1Nc1ncc2c(n1)N(C)c1ccccc1C(=O)N2C | kinase still bound, per cent of control | 100 |
| COc1cc2ncnc(-n3nc(-c4ccccn4)nc3N)c2cc1OC | kinase still bound, per cent of control | 85 |
| CNC(=O)c1cc(Oc2ccc(NC(=O)Nc3ccc(Cl)c(C(F)(F)F)c3)cc2)ccn1 | kinase still bound, per cent of control | 100 |
| NC(=O)Nc1cc(-c2cccc(F)c2)sc1C(=O)N[C@@H]1CCCNC1 | kinase still bound, per cent of control | 54 |
| O=c1cc(N2CCOCC2)oc2c(-c3cccc4c3sc3ccccc34)cccc12 | kinase still bound, per cent of control | 100 |
| COc1ccc(N(C(=O)Oc2c(C)cccc2C)c2ccnc(Nc3ccc(N4CCN(C)CC4)cc3)n2)c(OC)c1 | kinase still bound, per cent of control | 100 |
| N#CCNC(=O)c1ccc(-c2ccnc(Nc3ccc(N4CCOCC4)cc3)n2)cc1 | kinase still bound, per cent of control | 71 |
| C=CC(=O)Nc1ccc(CN(C(=O)Nc2c(Cl)c(OC)cc(OC)c2Cl)c2cc(Nc3ccc(N4CCN(C)CC4)cc3)ncn2)cc1 | kinase still bound, per cent of control | 100 |
| COCC(=O)NC/C=C/c1ccc2ncnc(Nc3ccc(Oc4ccc(C)nc4)c(C)c3)c2c1 | kinase still bound, per cent of control | 100 |
